# TEST_TARGET: Aryl hydrocarbon receptor (Homo sapiens) (UniProt P35869)
# Sequence (P35869 whole entry, looked up): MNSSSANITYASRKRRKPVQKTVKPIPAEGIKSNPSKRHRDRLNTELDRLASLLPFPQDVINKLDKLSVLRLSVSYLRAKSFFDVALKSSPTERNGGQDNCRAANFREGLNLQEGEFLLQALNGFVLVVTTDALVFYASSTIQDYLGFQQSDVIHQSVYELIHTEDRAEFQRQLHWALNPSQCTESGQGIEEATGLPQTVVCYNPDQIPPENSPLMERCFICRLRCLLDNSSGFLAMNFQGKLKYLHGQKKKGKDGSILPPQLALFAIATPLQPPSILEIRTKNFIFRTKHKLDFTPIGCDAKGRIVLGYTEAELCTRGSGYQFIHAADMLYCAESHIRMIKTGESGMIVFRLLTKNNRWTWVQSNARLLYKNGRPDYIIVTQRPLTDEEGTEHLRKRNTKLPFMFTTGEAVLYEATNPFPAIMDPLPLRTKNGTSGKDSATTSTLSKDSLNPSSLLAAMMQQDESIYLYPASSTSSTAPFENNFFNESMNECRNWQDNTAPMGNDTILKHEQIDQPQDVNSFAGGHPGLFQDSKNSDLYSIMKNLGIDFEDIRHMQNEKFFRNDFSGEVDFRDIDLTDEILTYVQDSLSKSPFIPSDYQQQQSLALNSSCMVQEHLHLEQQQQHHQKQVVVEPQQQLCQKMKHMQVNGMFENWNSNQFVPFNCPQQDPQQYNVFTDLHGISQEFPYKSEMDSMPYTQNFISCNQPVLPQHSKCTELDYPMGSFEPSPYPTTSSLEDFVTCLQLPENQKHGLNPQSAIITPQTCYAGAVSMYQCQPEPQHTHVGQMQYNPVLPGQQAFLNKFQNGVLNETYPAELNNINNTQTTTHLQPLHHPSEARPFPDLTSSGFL
# ASSAY_PROTOCOL: ATG_Ahr_CIS: Attagene CIS-FACTORIAL HepG2 Assay for human Aryl Hydrocarbon Receptor (Ahr) (AID 2282930)
# COND: HepG2 AhR cis-factorial reporter transcription; actives raise or lower the signal
Active and inactive are the calls of the source. The calls were made as follows: active = hit-call score of the fitted dose curve at least 0.9, where 1 is the maximum; inactive = score below 0.9.
Outcome codes: 1 (active), -1 (inactive)

>>> df
                                    compound  assigned_class
 0                      CC(C)c1ccc(C(C)C)cc1              -1
 1                          Cc1ccc(C(=O)O)o1              -1
 2            CC(O)C(C)O (centres undefined)              -1
 3                            COc1cccc(OC)c1              -1
 4               CSc1nnc(C(C)(C)C)c(=O)[nH]1              -1
 5                       O=S(=O)(O)NC1CCCCC1              -1
 6                                    ClCCCl              -1
 7  CC(C)(C#N)c1cc(Cn2cncn2)cc(C(C)(C)C#N)c1              -1
 8                                   NCCNCCN              -1
 9                       O=C1NC(=O)c2ccccc21              -1
10    CCC(C)(O)CCC=C(C)C (centres undefined)              -1
11              C=C(C)C(=O)Nc1ccc(Cl)c(Cl)c1               1
12                      C=CCOC(=O)CCC1CCCCC1              -1
13                            CCCCOCCOCCSC#N              -1
